assay: chemical genetic growth profiling, strain panel (AID 1159580);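 also: tested at 20 µM; growth read once vehicle control cultures reached saturation at 30 °C; 1 = growth at the plate median or of vehicle wells; lower values mean less growth of the strain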; conditions: S. cerevisiae deletion strains, growth OD, locus YBL061C, strain skt5, stronger effect = lower value
The campaign covered roughly 5,500 compounds. About 2,000 (36%) were called active. Not shown: some 18% with an inconclusive outcome. Some of the results follow.
property-label: normalized growth
I only need the number, thanks.

Solved entries:
- N=C(N)SCCN: 1.01
- CC1(C)CC[C@]2(C)CC[C@]3(C)C(=CCC4[C@@]5(C)CC[C@H](O)C(C)(C)C5CC[C@]43C)C2C1 (stereo partly specified): 0.986
- Nc1c2ccccc2nc2ccccc12: 0.754
- COC1=C[C@@H]2[C@@H]3Cc4ccc(OC)c(O)c4[C@]2(CCN3C)CC1=O: 1.01
- Clc1ccccc1C(c1ccccc1)(c1ccccc1)n1ccnc1: 0.0604

Consider the record given below.
q: Would you mind telling me what normalized growth value was observed for `FC(F)(F)c1ccccc1-n1ccnc1` ?
a: 1.01

====

assay: chemical genetic growth profiling, strain panel (AID 1159580);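 also: tested at 20 µM; growth read once vehicle control cultures reached saturation at 30 °C; 1 = growth at the plate median or of vehicle wells; lower values mean less growth of the strain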; settings: S. cerevisiae deletion strains, growth OD, locus YPL055C, strain LGE1
Among all 5,500 compounds or so, about 2,000 (36%) were called active. Another 18% or so got no clear call; they are omitted. Rule as the data show it: active = normalized growth mostly below about 0.91 (no sharp cut-off); inconclusive = no clear call, values can overlap the other calls; inactive = mostly above about 0.92. Some of the results follow.
Returns: one label drawn from YES = active, NO = inactive

• O=C1C(O)=C(O)C(=O)C(O)=C1O = NO
• C#C[C@]1(O)CCC2C3CCC4=CC(=O)CC[C@@H]4C3CC[C@@]21CC (some centres undefined) = NO
• COc1ccc2c(c1)c(CC(=O)OCC(=O)O)c(C)n2C(=O)c1ccc(Cl)cc1 = NO
• Cc1cccc(NC(=S)NC2CC3C=CC2C3)c1 (centres undefined) = NO
• CC(N)C1CCC(C(=O)Nc2ccncc2)CC1 (centres undefined) = NO

Continue with the compound presented below.
q: Tell me the recorded outcome of this test for `Nc1ccc(-n2nc(C(F)(F)F)cc2C(F)(F)F)cc1` .
a: NO

====

test: chemical genetic growth profiling, strain panel (AID 1159580);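 also: tested at 20 µM; growth read once vehicle control cultures reached saturation at 30 °C; 1 = growth at the plate median or of vehicle wells; lower values mean less growth of the strain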; details: S. cerevisiae deletion strains, growth OD, locus YJL166W, strain qcr8, stronger effect = lower value
About 2,000 (36%) of roughly 5,500 compounds were called active. Another 18% or so got no clear call; they are omitted. The list shows a part of the results.
property-label: normalized growth
I only need the number, thanks.

Solved entries:
- Cc1ccc(N=CN(C)C=Nc2ccc(C)cc2C)c(C)c1: 0.974
- COc1cccc2c1C(=O)c1c(O)c3c(c(O)c1C2=O)C[C@@](O)(C(=O)CO)C[C@@H]3OC1C[C@H](N)[C@H](O)[C@H](C)O1 (stereo not given in full): 0.302
- C[C@]12CCC(=O)C=C1CCC1C2[C@@H](O)C[C@@]2(C)C1CC[C@]2(O)C(=O)CO (stereo not given in full): 1.02

Consider the record given below.
q: Would you mind telling me what normalized growth value was observed for C#C[C@]1(O)CCC2C3CCC4=C(CCC(=O)C4)C3CC[C@@]21C (stereo not given in full) ?
a: 0.97

====

test: chemical genetic growth profiling, strain panel (AID 1159580);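 also: tested at 20 µM; growth read once vehicle control cultures reached saturation at 30 °C; 1 = growth at the plate median or of vehicle wells; lower values mean less growth of the strain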; details: S. cerevisiae deletion strains, growth OD, strain NNK1
The campaign covered roughly 5,500 compounds. About 2,000 (36%) were called active. Roughly 18% stayed inconclusive and do not appear here. Cut-off read from the data, not from the text of the source: active = normalized growth mostly below about 0.91 (no sharp cut-off); inconclusive = no clear call, values can overlap the other calls; inactive = mostly above about 0.92. The list shows a part of the results.
Returns: one label drawn from True for active, False for inactive

Worked set:
- Clc1ccc2c(c1)c1ccccc1n2CN1CCOCC1: False
- Cc1nc(-c2cccnc2)nc(NCc2ccccc2)c1Cl: False
- Cc1ccc(C)c(CSc2nc(C3CCCCC3)c(C#N)c(=O)[nH]2)c1: False
- O=C(NCCNc1ncc(C(F)(F)F)cc1Cl)C(F)(F)Sc1ccccc1: False
- Cc1ccc(S(=O)(=O)n2c(Sc3ccc([N+](=O)[O-])cc3[N+](=O)[O-])nc3cc(C)ccc32)cc1: False
- N#Cc1c2ccccc2nc2ccccc12: True
- COc1cccc(NC(=S)NC2CC(C)CC(C)(C)C2)c1 (stereo unspecified): False
- COc1ccc2nc3ccccc3c(N)c2c1: True
- Cc1nc(-c2ccccn2)nc(N(C)Cc2ccccc2)c1Cl: False
- O=C(NCCNc1ncc(Cl)cc1C(F)(F)F)C(F)(F)Sc1ccccc1: False

Continue with the compound presented below.
q: Tell me the recorded outcome of this test for `Fc1ccc(NC(=S)N2CCCN(Cc3ccc(Cl)cc3Cl)CC2)cc1` .
a: False
